Assay: photoluminescence quantum yield (fraction); solvent given as SMILES
Conditions: in C1CCOC1
READOUT LABEL: photoluminescence quantum yield
Just the number, please, no unit attached.

Sample answers from the record:
COMPOUND: COc1ccc2c3c(c4ccc(OC)cc4c2c1)=[N+]1C(=C(c2c(C)cc(C)cc2C)c2cc4c5ccc(OC)cc5c5cc(OC)ccc5c4n2[B-]1(F)F)C=3
OBSERVED: 0.5
--
COMPOUND: CC(C)(C)c1ccc2c(c1)c1cc(C(C)(C)C)cc3c1n2B1c2c-3cccc2-c2cc(C(C)(C)C)cc3c4cc(C(C)(C)C)ccc4n1c23
OBSERVED: 0.63
--
COMPOUND: COc1cc2c(cc1/C=C/C(=C(C#N)C#N)c1ccccc1)c1ccccc1n2C
OBSERVED: 0.008
--
COMPOUND: F[B-]1(F)n2c(-c3ccccc3)cc(-c3ccccc3)c2C(c2ccccc2)=C2C(c3ccccc3)=CC(c3ccccc3)=[N+]21
OBSERVED: 0.31
--
COMPOUND: CCCCC(CC)CN1C(=O)c2cccc3c(C#Cc4ccc(N(c5ccccc5)c5ccc(C#Cc6ccc7c8c(cccc68)C(=O)N(CC(CC)CCCC)C7=O)cc5)cc4)ccc(c23)C1=O (stereo not given)
OBSERVED: 0.85
--
COMPOUND: CC(=O)c1ccc(-c2ccc3c(c2)C(=O)c2cc(-c4ccc(C(C)=O)cc4)ccc2-3)cc1
OBSERVED: 0.03
--
COMPOUND: CN(C)c1ccc(C2=Nc3scc(-c4ccccc4)[n+]3[B-](F)(F)O2)cc1
OBSERVED: 0.75
--
COMPOUND: Cc1ccc(OCc2cc(=O)oc3c2ccc2ccccc23)cc1
OBSERVED: 0.0561

Query :: Entry under review: COc1cccc(C2=C(c3ccc(C(C)(C)C)cc3)C(c3ccc(C(C)(C)C)cc3)=[N+]3C2=C(c2ccccc2)c2c(-c4cccc(OC)c4)c(-c4ccc(C(C)(C)C)cc4)c(-c4ccc(C(C)(C)C)cc4)n2[B-]3(F)F)c1 . Reported photoluminescence quantum yield?
Result :: 0.45

* * *

Experiment: photoluminescence quantum yield (fraction); solvent given as SMILES
Conditions: in C1COCCO1
Grouping key: photoluminescence quantum yield. Bins: low band = under 0.2, middle band = from 0.2 up to 0.6, high band = 0.6 and over

COMPOUND: CC1(C)CCc2c(c3ccccc3c3nc4c5c(c6ccccc6c4nc23)OC(C)(C)CC5)O1
ASSIGNED CLASS: middle band
--
COMPOUND: COc1nc(Cl)nc(Nc2ccc3c4cccc5cccc(c6cccc2c63)c54)n1
ASSIGNED CLASS: middle band
--
COMPOUND: c1ccc(-c2ccc(-c3ccc(-c4ccccc4)cc3)cc2)cc1
ASSIGNED CLASS: high band
--
COMPOUND: CN(C)c1ccc(C2=Cc3c4ccccc4c4ccccc4[n+]3[B-](F)(F)O2)cc1
ASSIGNED CLASS: high band
--
COMPOUND: CC(=O)Nc1ccc2c3cccc4cccc(c5cccc1c52)c43
ASSIGNED CLASS: middle band
--
COMPOUND: COc1cc(/C=C2/SC(=O)NC2=O)cc(OC)c1O
ASSIGNED CLASS: low band
--
COMPOUND: COc1ccc(C2=C3C(C)=CC(C)=[N+]3[B-](F)(F)n3c(/C=C/c4ccc(N(C)C)cc4)cc(C)c32)cc1
ASSIGNED CLASS: high band
--
COMPOUND: CN(C)c1ccc2c(c1)Cc1ccccc1-2
ASSIGNED CLASS: middle band

Query :: Kindly state the category for this compound: CC1=C(C(C)(C)C)C(C)=[N+]2C1=C(C)c1c(C)c(C(C)(C)C)c(C)n1[B-]2(F)F
Result :: middle band

Query :: Kindly state the category for this compound: COc1ccc(C2CC(c3ccc(O)cc3)=NN2c2ccc(S(N)(=O)=O)cc2)cc1 (configuration not stated)
Result :: high band

Query :: Kindly state the category for this compound: COc1cc(/C=C2/SC(=O)NC2=O)ccc1O
Result :: low band

Query :: Kindly state the category for this compound: COc1nc(Nc2ccc3cc4ccccc4cc3c2)nc(OC)n1
Result :: middle band

* * *

# Lookup of reported photoluminescence quantum yield keyed by entry
Test: photoluminescence quantum yield (fraction); solvent given as SMILES
Conditions: in ClC(Cl)Cl

Sample answers from the record:
MOLECULE: CC(C)(C)c1ccc2c(c1)c1cc(C(C)(C)C)ccc1n2-c1ccc2oc3nc4oc5ccc(C(F)(F)F)cc5c4cc3c2c1
photoluminescence quantum yield: 0.058

MOLECULE: COc1ccc(C2=C3C=CC(C)=[N+]3[B-](F)(F)n3c(C)ccc32)cc1
photoluminescence quantum yield: 0.46

MOLECULE: F[B-]1(F)n2c(cc3ccc4ccccc4c32)C(c2ccc(I)cc2)=C2C=C3CCc4ccccc4C3=[N+]21
photoluminescence quantum yield: 0.17

MOLECULE: N#Cc1c2oc3ccccc3oc2c(C#N)c2oc3ccccc3oc12
photoluminescence quantum yield: 0.78

MOLECULE: CCCCCCn1c2ccccc2c2cc3c4cc5c6ccccc6n(CCCCCC)c5cc4c4cc5c(C)cc(=O)oc5cc4c3cc21
photoluminescence quantum yield: 0.12

Query :: Entry under review: CC1(C)c2ccccc2-c2ccc(N3c4ccc(-c5ccc(/C=C6\C(=O)c7ccc(C(=O)O)cc7C6=O)s5)cc4C4CCCC43)cc21 (stereo not drawn) . Reported photoluminescence quantum yield?
Result :: 0.18

Query :: Entry under review: CC1(C)c2cc(C#N)ccc2-c2ccc(N3c4ccccc4Oc4ccccc43)cc21 . Reported photoluminescence quantum yield?
Result :: 0.11

Query :: Entry under review: O=C1c2cccc3c(-n4c5ccccc5c5ccccc54)ccc(c23)C(=O)N1C1CCCCC1 . Reported photoluminescence quantum yield?
Result :: 0.21

* * *

Test: photoluminescence quantum yield (fraction); solvent given as SMILES
Settings: in ClC(Cl)Cl
READOUT LABEL: photoluminescence quantum yield
Just the number, please, no unit attached.

CHEM SMILES: COc1ccc2c(-c3nc(-c4ccccc4Cl)no3)cc(=O)oc2c1
photoluminescence quantum yield: 0.19

Query :: Entry under review: CCN(CC)c1ccc2cc(-c3cn4cc5ccccc5cc4n3)c(=O)oc2c1 . Reported photoluminescence quantum yield?
Result :: 0.92

Query :: Entry under review: CCCCCCCCn1c(=O)c2cc3cc4cc5c(=O)n(CCCCCCCC)c(=O)c5cc4c(C#Cc4ccc(N(c5ccccc5)c5ccccc5)cc4)c3cc2c1=O . Reported photoluminescence quantum yield?
Result :: 0.39

Query :: Entry under review: COc1ccc2c3cccc4c(OC)ccc(c5cccc1c52)c43 . Reported photoluminescence quantum yield?
Result :: 0.82

Query :: Entry under review: CCCCc1cc(-c2cccc(COC)c2)oc1-c1cccc(-c2cc(CCCC)c(-c3cccc(-c4cc(CCCC)c(-c5cccc(-c6oc(-c7cccc(-c8oc(-c9cccc(-c%10oc(-c%11cccc(COC)c%11)cc%10CCCC)c9)cc8CCCC)c7)cc6CCCC)c5)o4)c3)o2)c1 . Reported photoluminescence quantum yield?
Result :: 0.54

Query :: Entry under review: CCC1=C(C)C2=C(c3cc(C(=O)Cl)cc(C(=O)Cl)c3)c3c(C)c(CC)c(C)n3[B-](F)(F)[N+]2=C1C . Reported photoluminescence quantum yield?
Result :: 0.53

Query :: Entry under review: CCOc1cc2c(cc1/C=C/C1=CC(=C(C#N)C#N)CC(C)(C)C1)c1ccccc1n2CC . Reported photoluminescence quantum yield?
Result :: 0.017

* * *

Assay: photoluminescence quantum yield (fraction); solvent given as SMILES
Settings: in CS(C)=O
READOUT LABEL: photoluminescence quantum yield

Sample answers from the record:
COMPOUND: Cc1cccn2c1cc1c3ccccc3nc(-c3cccs3)c12
OBSERVED: 0.2
//
COMPOUND: CC(C)(C)c1ccc(C(C)(C)C)c(N2C(=O)c3cccc4c(-c5ccc(-c6ccc([N+](=O)[O-])cc6)s5)ccc(c34)C2=O)c1
OBSERVED: 0.17
//
COMPOUND: CCOC(=O)CN(CC(=O)OCC)c1ccc(-c2cc(-c3ccncc3)nc(-c3ccncc3)c2)cc1
OBSERVED: 0.23
//
COMPOUND: CCCCCN(c1ccccc1)c1ccc2c(c1)C(CC)(CC)c1cc(/C=C/c3ccc(/C=C(\C#N)C(=O)O)s3)ccc1-2
OBSERVED: 0.622
//
COMPOUND: CC1(C)C(/C=C/c2cc3ccc(O)cc3oc2=O)=[N+](CCCS(=O)(=O)[O-])c2ccc3c(S(=O)(=O)O)cc(S(=O)(=O)O)cc3c21
OBSERVED: 0.025
//
COMPOUND: COc1ccc(NC(=O)C(C(=O)Nc2ccc(OC)cc2)C(c2cc(F)ccc2O)c2c[nH]c3ccc(OC)cc23)cc1 (stereo not drawn)
OBSERVED: 0.018

Query :: Entry under review: CCCCN(CCCC)c1ccc(/C=C/c2ccc(-c3ccc(/C=C/c4ccc(N(CCCC)CCCC)cc4)cc3)cc2)cc1 . Reported photoluminescence quantum yield?
Result :: 0.89

Query :: Entry under review: CCOC(=O)CN(CC(=O)OCC)c1ccc(-c2cc(-c3cccnc3)nc(-c3cccnc3)c2)cc1 . Reported photoluminescence quantum yield?
Result :: 0.51
